- ASSAYED_TARGET: HLA-B*40:01
- METHOD_DESCRIPTION: IEDB peptide-MHC binding, purified MHC/competitive/radioactivity; filed as Kd, often an IC50 or EC50 that approximates it; bounds were set here for any values at or beyond the usual limits of such assays
- CONDITION_CONTEXT: source organism: Mammarenavirus juninense
ATTRIBUTE_MEASURED: Kd

INSERT INTO results (sequence_record, attribute_measured, measurement) VALUES
  ('PDSCLNGKL', 'Kd', '≥ 67.9 µM');

* * *

- ASSAYED_TARGET: HLA-B*48:01
- METHOD_DESCRIPTION: IEDB peptide-MHC binding, purified MHC/competitive/fluorescence; filed as Kd, often an IC50 or EC50 that approximates it; bounds were set here for any values at or beyond the usual limits of such assays
- CONDITION_CONTEXT: source organism: Vibrio vulnificus CMCP6
ATTRIBUTE_MEASURED: Kd (nM)

INSERT INTO results (sequence_record, attribute_measured, unit_name, measurement) VALUES
  ('RQGKPDWLL', 'Kd', 'nM', 124);

* * *

- ASSAYED_TARGET: HLA-A*11:01
- METHOD_DESCRIPTION: IEDB peptide-MHC binding, purified MHC/competitive/radioactivity; filed as Kd, often an IC50 or EC50 that approximates it; bounds were set here for any values at or beyond the usual limits of such assays
- CONDITION_CONTEXT: source organism: Mammarenavirus brazilense
pKd: −log10 of the molar value.
ATTRIBUTE_MEASURED: pKd

INSERT INTO results (sequence_record, measurement) VALUES
  ('YVNHTASGEH', '≤ 4.16');

* * *

- ASSAYED_TARGET: HLA-B*15:02
- METHOD_DESCRIPTION: IEDB peptide-MHC binding, purified MHC/competitive/fluorescence; filed as Kd, often an IC50 or EC50 that approximates it; bounds were set here for any values at or beyond the usual limits of such assays
- CONDITION_CONTEXT: source organism: Entamoeba histolytica HM-1:IMSS
pKd: −log10 of the molar value.
ATTRIBUTE_MEASURED: pKd

INSERT INTO measurements (sequence_record, attribute_measured, measurement) VALUES
  ('ILLFPLPSF', 'pKd', 5.69);

* * *

- ASSAYED_TARGET: HLA-A*24:03
- METHOD_DESCRIPTION: IEDB peptide-MHC binding, purified MHC/direct/fluorescence; filed as Kd, often an IC50 or EC50 that approximates it; bounds were set here for any values at or beyond the usual limits of such assays
- CONDITION_CONTEXT: source organism: Marburg virus - Musoke, Kenya, 1980
ATTRIBUTE_MEASURED: Kd

INSERT INTO measurements (sequence_record, assayed_target, attribute_measured, measurement) VALUES
  ('LFLSFCSLF', 'HLA-A*24:03', 'Kd', '245 nM');

* * *

- ASSAYED_TARGET: HLA-A*02:19
- METHOD_DESCRIPTION: IEDB peptide-MHC binding, purified MHC/direct/fluorescence; filed as Kd, often an IC50 or EC50 that approximates it; bounds were set here for any values at or beyond the usual limits of such assays
- CONDITION_CONTEXT: source organism: Salmonella enterica subsp. enterica serovar Typhimurium str. LT2
pKd: −log10 of the molar value.
ATTRIBUTE_MEASURED: pKd

INSERT INTO results (sequence_record, measurement) VALUES
  ('FTGEYLLRL', '≤ 4.70');
